Data provenance: the supplement of paper PMC7411054

Test system: A549-TP53BP1-CLTA
assay-info: phenotypically active (imaging signature differs from DMSO and reproducible) at any of 0.3-9 uM (binary (1 = active, 0 = inactive)); higher = active
condition-summary: treatment time: 24 h
test-readout: phenotypically active
// no unit, no text: just the number

IN: # phenotypically active lookup, item C[C@H]1CCC2(NC1)O[C@H]1C[C@H]3[C@@H]4CC[C@H]5C[C@@H](O[C@@H]6O[C@H](CO)[C@H](O[C@@H]7O[C@H](CO)[C@@H](O)[C@H](O[C@@H]8OC[C@@H](O)[C@H](O)[C@H]8O)[C@H]7O[C@@H]7O[C@H](CO)[C@@H](O)[C@H](O)[C@H]7O)[C@H](O)[C@H]6O)CC[C@]5(C)[C@H]4CC[C@]3(C)[C@H]1[C@@H]2C (some centres not stated)
OUT: 0

IN: # phenotypically active lookup, item COc1ccc2c3c1O[C@H]1C(=O)CC[C@H]4[C@@H](C2)N(C)CC[C@]314 [hydrocodone]
OUT: 0

* * *

Exercise: for every item that follows, state its recorded phenotypically active.
Tested on: A549-CANX-COX4
assay-info: phenotypically active (imaging signature differs from DMSO and reproducible) at any of 0.3-9 uM (binary (1 = active, 0 = inactive)); higher = active
condition-summary: treatment time: 24 h
Counter-ions that a name gives are not always drawn.
// no unit, no text: just the number

IN: # phenotypically active lookup, item COc1cc2c(cc1OC)[C@@]13CCN4CC5=CCO[C@H]6CC(=O)N2[C@H]1[C@H]6[C@H]5C[C@H]43
OUT: 0

IN: # phenotypically active lookup, item CC1=C2[C@H]3OC(=O)[C@@H](C)[C@@H]3CC[C@@]2(C)C=CC1=O
OUT: 0

IN: # phenotypically active lookup, item CC[C@]12C=CCN3CC[C@]4(C(=C(C(=O)OC)C1)Nc1ccccc14)[C@@H]32 [Tabersonine dichlorhydrate]
OUT: 1

IN: # phenotypically active lookup, item O=C1C[C@@H]2OCC=C3CN4CC[C@]56c7ccccc7N1[C@H]5[C@H]2[C@H]3C[C@H]46
OUT: 0

IN: # phenotypically active lookup, item C=CCC1(C(C)C#CCC)C(=O)NC(=O)N(C)C1=O (centres undefined)
OUT: 0

IN: # phenotypically active lookup, item Cc1c(C(=O)Nc2cccc(C(F)(F)F)c2)cc(-c2ccccc2)n1CCCN1CCOCC1
OUT: 0

IN: # phenotypically active lookup, item COc1cc(C(=O)O[C@H]2C[C@H]3CC[C@@H](C2)N3C)ccc1O
OUT: 0

IN: # phenotypically active lookup, item CC(C)C[C@H](CN)CC(=O)O
OUT: 0

IN: # phenotypically active lookup, item CN1C2CCC1CC(O)C2 (centres undefined)
OUT: 0

IN: # phenotypically active lookup, item CC[C@@H](C(=O)[C@@H](C)[C@@H](O)[C@H](C)[C@@H]1O[C@@H]([C@@H](CC)C(=O)O)CC[C@@H]1C)[C@H]1O[C@]2(C=C[C@@H](O)[C@]3(CC[C@@](C)([C@H]4CC[C@](O)(CC)[C@H](C)O4)O3)O2)[C@H](C)C[C@@H]1C [Salinomycin Sodium]
OUT: 1

IN: # phenotypically active lookup, item O[C@H]1[C@H](O)[C@@H](O)CN2CC[C@H](O)[C@H]12
OUT: 0

IN: # phenotypically active lookup, item CC(C)[C@@]1(NC(=O)[C@@H]2C[C@@H]3c4cccc5[nH]cc(c45)C[C@H]3N(C)C2)O[C@@]2(O)[C@@H]3CCCN3C(=O)[C@H](Cc3ccccc3)N2C1=O [Dihydroergocristine mesylate]
OUT: 1

IN: # phenotypically active lookup, item Clc1ccc2c(c1)C(c1ccccc1)=NCc1nncn1-2
OUT: 0

IN: # phenotypically active lookup, item CC[C@@H](CO)NC(=O)[C@@H]1C=C2c3cccc4c3c(cn4C)C[C@H]2N(C)C1 [methysergide]
OUT: 0

IN: # phenotypically active lookup, item CC(C)(C)c1cc(C=C(C#N)C#N)cc(Br)c1O
OUT: 0

IN: # phenotypically active lookup, item O=P1(NCCCl)OCCCN1CCCl (centres undefined) [ifosfamide]
OUT: 0

IN: # phenotypically active lookup, item CN1C[C@H](CO)C=C2c3cccc4[nH]cc(c34)C[C@H]21
OUT: 0

IN: # phenotypically active lookup, item CC[C@H]1CN2CC[C@H]1C[C@@H]2[C@@H](O)c1ccnc2ccc(OC)cc12 [Hydroquinidine HCl]
OUT: 0

IN: # phenotypically active lookup, item CN(C)NC(=O)CCC(=O)O [Daminozide]
OUT: 0

* * *

Exercise: for every item that follows, state its recorded lowest phenotypically active concentration.
Test system: WPMY1-CANX-COX4
assay-info: lowest phenotypically active concentration; higher = less potent
condition-summary: treatment time: 24 h
Counter-ions that a name gives are not always drawn.
Unit µM implied. Number only.

IN: Find lowest phenotypically active concentration (WPMY1-CANX-COX4) for the entry CC[C@H]1CN2CC[C@H]1C[C@@H]2[C@@H](O)c1ccnc2ccc(OC)cc12 [Hydroquinidine HCl]
OUT: 9

IN: Find lowest phenotypically active concentration (WPMY1-CANX-COX4) for the entry C=C(C)[C@H]1Cc2c(ccc3c2O[C@@H]2COc4cc(OC)c(OC)cc4[C@@H]2C3=O)O1
OUT: 1

IN: Find lowest phenotypically active concentration (WPMY1-CANX-COX4) for the entry C=C1[C@@H](C)[C@H]2[C@H](Cc3ccccc3)NC(=O)[C@]23OC(=O)C=C[C@H](O)CCC[C@@H](C)CC=C[C@H]3[C@@H]1O
OUT: 1

IN: Find lowest phenotypically active concentration (WPMY1-CANX-COX4) for the entry Cc1cc2c(C(C)C)c(O)c(O)c(C=O)c2c(O)c1-c1c(C)cc2c(C(C)C)c(O)c(O)c(C=O)c2c1O
OUT: 9

IN: Find lowest phenotypically active concentration (WPMY1-CANX-COX4) for the entry COC1=CC(C)=C[C@@H](C)[C@@H](O)[C@@H](C)CC(C)=CC=C[C@H](OC)[C@@H]([C@@H](C)[C@@H](O)[C@H](C)[C@@]2(O)C[C@@H](O)[C@H](C)[C@@H](C(C)C)O2)OC1=O
OUT: 3

IN: Find lowest phenotypically active concentration (WPMY1-CANX-COX4) for the entry O=C1NC(=S)N(c2cccc(Br)c2)C(=O)/C1=C/c1ccco1
OUT: 9

IN: Find lowest phenotypically active concentration (WPMY1-CANX-COX4) for the entry CC(C)[C@@]1(NC(=O)[C@@H]2C[C@@H]3c4cccc5[nH]cc(c45)C[C@H]3N(C)C2)O[C@@]2(O)[C@@H]3CCCN3C(=O)[C@H](Cc3ccccc3)N2C1=O [Dihydroergocristine mesylate]
OUT: 9

IN: Find lowest phenotypically active concentration (WPMY1-CANX-COX4) for the entry CC[C@]12C=CCN3CC[C@]4(C(=C(C(=O)OC)C1)Nc1ccccc14)[C@@H]32 [Tabersonine dichlorhydrate]
OUT: 9

* * *

System: WPMY1-ACTB-RAB5A
assay-info: phenotypically active (imaging signature differs from DMSO and reproducible) at any of 0.3-9 uM (binary (1 = active, 0 = inactive)); higher = active
condition-summary: treatment time: 24 h
Exercise: for every item that follows, state its recorded phenotypically active.
// no unit, no text: just the number

IN: # phenotypically active lookup, item CC(C)C[C@H]1C(=O)N2CCC[C@H]2[C@]2(O)O[C@](NC(=O)[C@@H]3C=C4c5cccc6[nH]c(Br)c(c56)C[C@H]4N(C)C3)(C(C)C)C(=O)N12
OUT: 0

IN: # phenotypically active lookup, item CC[C@@H]1C=CC=CC[C@H](C)[C@@H](O)[C@](C)(O)C(=O)[C@H](C)[C@@H](O)[C@H](C)C(=O)[C@H](C)[C@@H](O)[C@H](C)C=CC(=O)O[C@H]2[C@@H](C)[C@@H](CC1)O[C@@]1(CC[C@@H](C)[C@@H](C[C@H](C)O)O1)[C@@H]2C
OUT: 0

IN: # phenotypically active lookup, item COC1=CC(C)=C[C@@H](C)[C@@H](O)[C@@H](C)CC(C)=CC=C[C@H](OC)[C@@H]([C@@H](C)[C@@H](O)[C@H](C)[C@@]2(O)C[C@@H](O)[C@H](C)[C@@H](C(C)C)O2)OC1=O
OUT: 1

IN: # phenotypically active lookup, item C=C[C@H]1C[N@@]2CC[C@H]1C[C@H]2[C@H](O)c1ccnc2ccccc12 [(-)-Cinchonidine]
OUT: 0

IN: # phenotypically active lookup, item C[C@]1(C(=O)O)CCC[C@]2(C)c3cc(O)ccc3CC[C@@H]12
OUT: 0

IN: # phenotypically active lookup, item COc1cc2c(c(OC)c1OC)-c1ccc(O)c(=O)cc1[C@@H](N)CC2
OUT: 0

* * *

System: HepG2-ACTB-RAB5A
assay-info: phenotypically active (imaging signature differs from DMSO and reproducible) at any of 0.3-9 uM (binary (1 = active, 0 = inactive)); higher = active
condition-summary: treatment time: 24 h
Structures can show the parent of a compound that is named as a salt.
test-readout: phenotypically active
// no unit, no text: just the number

IN: # phenotypically active lookup, item COC(=O)[C@@]1(O)C[C@H]2O[C@]1(C)n1c3ccccc3c3c4c(c5c6ccccc6n2c5c31)C(=O)NC4
OUT: 1

IN: # phenotypically active lookup, item CNCC(O)c1ccc(O)c(OC)c1 (stereo not drawn) [Metanephrine hydrochloride DL]
OUT: 0

IN: # phenotypically active lookup, item CN1C[C@H](C(=O)N[C@]2(C)O[C@@]3(O)[C@@H]4CCCN4C(=O)[C@H](Cc4ccccc4)N3C2=O)C[C@@H]2c3cccc4[nH]cc(c34)C[C@H]21.CN1C[C@H](C(=O)N[C@]2(C)O[C@@]3(O)[C@@H]4CCCN4C(=O)[C@H](Cc4ccccc4)N3C2=O)C[C@@H]2c3cccc4[nH]cc(c34)C[C@H]21 [dihydroergotamine]
OUT: 1

IN: # phenotypically active lookup, item N#CC(C#N)=NNc1cccc(Cl)c1
OUT: 1

IN: # phenotypically active lookup, item N#CC(C#N)=NNc1ccc(OC(F)(F)F)cc1
OUT: 1

IN: # phenotypically active lookup, item N[C@@H]1C[C@H]1c1cc(F)cc(F)c1OCc1ccccc1
OUT: 0
